Provenance of the data: paper PMC9867208

# assay.details: Experimental lipophilicity by RP-TLC
# condition.description: RP-TLC, acetone/TRIS 0.2 M pH 7.4, extrapolated to zero acetone
parameter.measured: RM0 (chromatographic parameter of lipophilicity)

{"compound": "O=C1C(Cl)=C(Oc2cccc3cccnc23)C(=O)c2ccccc21", "meas.value": 2.90}

a = Cc1ccc2c(n1)C(=O)C(Oc1cccc3ccc(N4CCCC4)nc13)=C(Cl)C2=O
b = NC(=O)c1ccccc1 [A, benzamide, reference compound]
c = Cc1ccc2c(n1)C(=O)C(Oc1cccc3ccc(C=O)nc13)=C(Cl)C2=O
Query: Task for the reader: rank each entry by its RM0 (chromatographic parameter of lipophilicity), from the minimum upward. Would you mind listing the labels in the order asked for?
Response: b, c, a
(b: 0.54, c: 2.05, a: 3.39)

P = Cc1ccc2c(n1)C(=O)C(Oc1cccc3ccc(N4CCOCC4)nc13)=C(Cl)C2=O
Q = O=C1C(Cl)=C(Oc2cccc3ccc(Cl)nc23)C(=O)c2ccccc21
Query: Of P and Q , whose reported RM0 (chromatographic parameter of lipophilicity) is the larger number? Mark your answer with the label of the selected entry.
Response: Q

###

# assay.details: Experimental lipophilicity by RP-TLC
# condition.description: φ0 = −RM0/b
parameter.measured: φ0 (hydrophobicity index)

{"structure.string": "Cc1ccc2c(n1)C(=O)C(Oc1cccc3cccnc13)=C(Cl)C2=O", "meas.value": 66.07}
{"structure.string": "O=Cc1ccc2cccc(OC3=C(Cl)C(=O)c4ccncc4C3=O)c2n1", "meas.value": 73.71}
{"structure.string": "O=C1C(Cl)=C(Oc2cccc3cccnc23)C(=O)c2ccccc21", "meas.value": 78.79}
{"structure.string": "O=C1C(Cl)=C(Oc2cccc3ccc(Cl)nc23)C(=O)c2ccccc21", "meas.value": 76.85}
{"structure.string": "O=C1C(Cl)=C(Oc2cccc3ccc(N4CCCC4)nc23)C(=O)c2ccccc21", "meas.value": 81.13}
{"structure.string": "Cc1ccc2c(n1)C(=O)C(Oc1cccc3ccc(N4CCOCC4)nc13)=C(Cl)C2=O", "meas.value": 68.95}
{"structure.string": "Cc1ccc2cccc(OC3=C(Cl)C(=O)c4cccnc4C3=O)c2n1", "meas.value": 68.99}
{"structure.string": "O=C1C(Cl)=C(Oc2cccc3cccnc23)C(=O)c2cnccc21", "meas.value": 72.57}
{"structure.string": "Cc1ccc2c(n1)C(=O)C(Oc1cccc3ccc(C=O)nc13)=C(Cl)C2=O", "meas.value": 71.78}
{"structure.string": "O=C1C(Cl)=C(Oc2cccc3ccc(N4CCCC4)nc23)C(=O)c2ncccc21", "meas.value": 74.53}
{"structure.string": "O=C1C(Cl)=C(Oc2cccc3ccc(Cl)nc23)C(=O)c2cnccc21", "meas.value": 78.21}
{"structure.string": "Cc1ccc2c(n1)C(=O)C(Oc1cccc3ccc(Cl)nc13)=C(Cl)C2=O", "meas.value": 69.66}
{"structure.string": "Cc1ccc2cccc(OC3=C(Cl)C(=O)c4ccccc4C3=O)c2n1", "meas.value": 79.55}
{"structure.string": "O=Cc1ccc2cccc(OC3=C(Cl)C(=O)c4ccccc4C3=O)c2n1", "meas.value": 80.01}
{"structure.string": "Cc1ccc2c(n1)C(=O)C(Oc1cccc3ccc(C)nc13)=C(Cl)C2=O", "meas.value": 69.97}
{"structure.string": "O=C1C(Cl)=C(Oc2cccc3ccc(Cl)nc23)C(=O)c2ncccc21", "meas.value": 65.88}
{"structure.string": "O=C1C(Cl)=C(Oc2cccc3ccc(N4CCOCC4)nc23)C(=O)c2ccccc21", "meas.value": 75.95}
{"structure.string": "O=C1C(Cl)=C(Oc2cccc3ccc(N4CCOCC4)nc23)C(=O)c2ncccc21", "meas.value": 66.81}
{"structure.string": "Cc1ccc2cccc(OC3=C(Cl)C(=O)c4ccncc4C3=O)c2n1", "meas.value": 74.47}
{"structure.string": "O=C1C(Cl)=C(Oc2cccc3ccc(N4CCOCC4)nc23)C(=O)c2cnccc21", "meas.value": 72.22}
{"structure.string": "O=C1C(Cl)=C(Oc2cccc3ccc(N4CCCC4)nc23)C(=O)c2cnccc21", "meas.value": 74.76}
{"structure.string": "O=C1C(Cl)=C(Oc2cccc3cccnc23)C(=O)c2ncccc21", "meas.value": 72.87}
{"structure.string": "Cc1ccc2c(n1)C(=O)C(Oc1cccc3ccc(N4CCCC4)nc13)=C(Cl)C2=O", "meas.value": 75.30}
{"structure.string": "O=Cc1ccc2cccc(OC3=C(Cl)C(=O)c4cccnc4C3=O)c2n1", "meas.value": 68.09}

###

# assay.details: Experimental lipophilicity by RP-TLC
# condition.description: RP-TLC, acetone/TRIS 0.2 M pH 7.4, extrapolated to zero acetone
parameter.measured: RM0 (chromatographic parameter of lipophilicity)

Example cases with answers are listed next.
{"compound": "c1ccc2cc3ccccc3cc2c1 [E, anthracene, reference compound]", "meas.value": 3.97}
{"compound": "O=C1C(Cl)=C(Oc2cccc3ccc(N4CCOCC4)nc23)C(=O)c2ccccc21", "meas.value": 4.01}
{"compound": "CC(=O)Nc1ccccc1 [B, acetanilide, reference compound]", "meas.value": 1.11}

P = O=Cc1ccc2cccc(OC3=C(Cl)C(=O)c4ccccc4C3=O)c2n1
Q = O=C1C(Cl)=C(Oc2cccc3ccc(N4CCCC4)nc23)C(=O)c2ncccc21
Query: // task: argmin of RM0 (chromatographic parameter of lipophilicity) over [ P , Q ] Identify your pick by its label.
Response: Q

###

# assay.details: Experimental lipophilicity by RP-TLC
# condition.description: pH 7.4
# Method: The RP-TLC method was used to determine the experimental lipophilicity according to the literature. […] The RM parameter was calculated for every concentration of acetone and extrapolated to zero concentration of organic solvent in the mobile phase. The chromatographic parameter of lipophilicity (RM0) was calculated using Equation (2):(2) RM=RM0+bC where C is the concentration of acetone in the mobile phase, while b is the slope of the regression plot. […]
parameter.measured: RM0 (chromatographic parameter of lipophilicity)

{"molecule": "O=C1C(Cl)=C(Oc2cccc3cccnc23)C(=O)c2cnccc21 [Compound 7]", "meas.value": 2.17}

a = Cc1ccc2cccc(OC3=C(Cl)C(=O)c4cccnc4C3=O)c2n1 [Compound 2]
b = Cc1ccc2cccc(OC3=C(Cl)C(=O)c4ccncc4C3=O)c2n1 [Compound 8]
Query: Field: entry with larger RM0 (chromatographic parameter of lipophilicity) (options a / b ). Please reply using the label of the selected record.
Response: b
(b: 2.56, a: 1.68)

###

# assay.details: Experimental lipophilicity by RP-TLC
parameter.measured: chromatographic logP

Past entries and their recorded results:
{"compound": "O=C1C(Cl)=C(Oc2cccc3ccc(Cl)nc23)C(=O)c2ncccc21", "chromatographic logP": 2.55}
{"compound": "O=C1C(Cl)=C(Oc2cccc3ccc(N4CCOCC4)nc23)C(=O)c2cnccc21", "chromatographic logP": 3.68}
{"compound": "Cc1ccc2c(n1)C(=O)C(Oc1cccc3ccc(N4CCCC4)nc13)=C(Cl)C2=O", "chromatographic logP": 3.79}

I = O=Cc1ccc2cccc(OC3=C(Cl)C(=O)c4cccnc4C3=O)c2n1
II = O=C1C(Cl)=C(Oc2cccc3ccc(N4CCOCC4)nc23)C(=O)c2ncccc21
Query: From the recorded data, which exceeds the other in chromatographic logP: I or II ? Please indicate the selected item by its label.
Response: II

###

# assay.details: Experimental lipophilicity by RP-TLC
parameter.measured: chromatographic logP

{"compound": "O=C1C(Cl)=C(Oc2cccc3ccc(Cl)nc23)C(=O)c2cnccc21", "parameter.measured": "chromatographic logP", "meas.value": 3.63}
{"compound": "Cc1ccc2c(n1)C(=O)C(Oc1cccc3ccc(Cl)nc13)=C(Cl)C2=O", "parameter.measured": "chromatographic logP", "meas.value": 3.3}
{"compound": "O=Cc1ccc2cccc(OC3=C(Cl)C(=O)c4ccccc4C3=O)c2n1", "parameter.measured": "chromatographic logP", "meas.value": 4.61}

A = O=C1C(Cl)=C(Oc2cccc3ccc(N4CCCC4)nc23)C(=O)c2cnccc21
B = O=C1C(Cl)=C(Oc2cccc3ccc(N4CCOCC4)nc23)C(=O)c2ccccc21
C = NC(=O)c1ccccc1 [A, benzamide, reference compound]
Query: Sort the 3 compounds by chromatographic logP; largest first, smallest last. Your answer should be the labels, listed in the requested order.
Response: B, A, C

###

# assay.details: Experimental lipophilicity by RP-TLC
parameter.measured: logPTLC (experimental lipophilicity)

Consider the following illustrative entries.
{"structure.string": "Cc1ccc2c(n1)C(=O)C(Oc1cccc3ccc(C)nc13)=C(Cl)C2=O", "logPTLC (experimental lipophilicity)": 2.00}
{"structure.string": "Cc1ccc2cccc(OC3=C(Cl)C(=O)c4cccnc4C3=O)c2n1", "logPTLC (experimental lipophilicity)": 1.84}
{"structure.string": "Cc1ccc2cccc(OC3=C(Cl)C(=O)c4ccncc4C3=O)c2n1", "logPTLC (experimental lipophilicity)": 2.85}

I = O=C1C(Cl)=C(Oc2cccc3cccnc23)C(=O)c2cnccc21
II = O=C1C(Cl)=C(Oc2cccc3cccnc23)C(=O)c2ncccc21
Query: Short answer wanted: higher logPTLC (experimental lipophilicity), I or II ? Please identify the chosen entry by its label.
Response: I
(I: 2.40, II: 1.65)
